# measured target: Mucosa-associated lymphoid tissue lymphoma translocation protein 1 (Homo sapiens)
# assay info: Inhibition of MALT1 (unknown origin) expressed in PMA/IO-stimulated human Raji Glosensor cells by reporter gene assay
# Assay type: cell-based
Square brackets hold non-standard residues; d marks the D form. Peptide text beside a SMILES is read from it. * marks the point of attachment. cisHyp = O=C(O)[C@@H]1C[C@H](O)CN1; Hyp = O=C(O)[C@@H]1C[C@@H](O)CN1; Cbz = O=C(OCc1ccccc1)*; CH2F = FC*
test readout: IC50 (nM)
Answer in nM, number only, no unit symbol.

compound="CC(C)[C@H](NC(=O)OCc1ccccc1)C(=O)N1C[C@@H](O)C[C@H]1C(=O)N[C@@H](CCCNC(=N)N)C(=O)CF (Cbz-Val-[cisHyp]-Arg-CH2F)" measured_target="Mucosa-associated lymphoid tissue lymphoma translocation protein 1 (Homo sapiens)" recorded_value=239
compound="CC(C)[C@H](NC(=O)OCc1ccccc1)C(=O)N1C[C@H](O)C[C@H]1C(=O)N[C@@H](CCCNC(=N)N)C(=O)CF (Cbz-Val-[Hyp]-Arg-CH2F)" measured_target="Mucosa-associated lymphoid tissue lymphoma translocation protein 1 (Homo sapiens)" recorded_value=209

Exam item: Report IC50 for `CC(C)[C@H](NC(=O)c1ccc(Br)cc1)C(=O)N1CCC[C@@H]1C(=O)N[C@@H](CCCNC(=N)N)C(=O)CF` tested on Mucosa-associated lymphoid tissue lymphoma translocation protein 1 (Homo sapiens).
Marked response: 17500

---

Each item that follows carries a reported Ki.
# measured target: Mucosa-associated lymphoid tissue lymphoma translocation protein 1 (Homo sapiens, UniProt Q9UDY8)
# Sequence (Q9UDY8 whole entry, the tested form may be a part): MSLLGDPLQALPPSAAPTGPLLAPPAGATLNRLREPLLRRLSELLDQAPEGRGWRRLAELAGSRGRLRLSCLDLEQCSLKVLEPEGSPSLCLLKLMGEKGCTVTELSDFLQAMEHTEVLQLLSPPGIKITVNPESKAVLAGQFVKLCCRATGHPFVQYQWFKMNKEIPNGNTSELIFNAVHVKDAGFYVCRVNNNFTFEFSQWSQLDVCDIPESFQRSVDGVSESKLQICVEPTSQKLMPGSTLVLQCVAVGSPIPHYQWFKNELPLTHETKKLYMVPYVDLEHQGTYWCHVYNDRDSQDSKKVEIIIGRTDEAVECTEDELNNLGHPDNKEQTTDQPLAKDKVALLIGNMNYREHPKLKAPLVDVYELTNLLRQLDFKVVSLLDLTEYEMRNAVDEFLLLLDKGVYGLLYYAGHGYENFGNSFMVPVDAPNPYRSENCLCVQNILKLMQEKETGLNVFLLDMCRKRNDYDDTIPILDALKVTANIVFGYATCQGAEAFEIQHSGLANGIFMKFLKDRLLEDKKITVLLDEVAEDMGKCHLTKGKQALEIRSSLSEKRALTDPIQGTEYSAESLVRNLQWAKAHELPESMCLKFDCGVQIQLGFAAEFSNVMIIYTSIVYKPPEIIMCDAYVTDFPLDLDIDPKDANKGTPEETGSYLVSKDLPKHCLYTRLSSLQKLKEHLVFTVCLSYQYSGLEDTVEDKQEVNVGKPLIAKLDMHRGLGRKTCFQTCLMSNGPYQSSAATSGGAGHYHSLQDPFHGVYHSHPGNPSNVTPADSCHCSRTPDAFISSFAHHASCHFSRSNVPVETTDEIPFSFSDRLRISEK
# assay info: Inhibition of recombinant LZ-fused MALT1 (340 to 789 residues) (unknown origin) using Ac-LRSR-AMC as substrate by fluorescence assay
Peptide text beside a SMILES is read from it. * marks the point of attachment. Cbz = O=C(OCc1ccccc1)*; CH2F = FC*
Answer in nM, number only, no unit symbol.

compound=CC(C)[C@H](NC(=O)OCc1ccccc1)C(=O)N[C@@H](CCCNC(=N)N)C(=O)N1CCC[C@H]1C(=O)N[C@@H](CCCNC(=N)N)C(=O)CF test_readout=Ki recorded_value=140

Exam item: // Ki lookup, key: CC(C)C[C@H](NC(=O)OCc1ccccc1)C(=O)N[C@H](C(=O)N1CCC[C@H]1C(=O)N[C@@H](CCCNC(=N)N)C(=O)CF)C(C)C (Cbz-LVPR-CH2F)
Marked response: 90

---

# measured target: Mucosa-associated lymphoid tissue lymphoma translocation protein 1 (Homo sapiens, UniProt Q9UDY8)
# assay info: Inhibition of recombinant LZ-fused MALT1 (340 to 789 residues) (unknown origin) using Ac-LRSR-AMC as substrate by fluorescence assay
Square brackets hold non-standard residues; d marks the D form. Peptide text beside a SMILES is read from it. * marks the point of attachment. NMeR = CN[C@@H](CCCNC(=N)N)C(=O)O; NMeV = CN[C@H](C(=O)O)C(C)C; Cbz = O=C(OCc1ccccc1)*; CH2F = FC*
test readout: Ki

molecule="CC(C)[C@H](NC(=O)OCc1ccccc1)C(=O)N1CCC[C@H]1C(=O)N(C)[C@@H](CCCNC(=N)N)C(=O)CF (Cbz-Val-Pro-[NMeR]-CH2F)" recorded_value="> 5 µM"

Exam item: // Ki lookup, key: `CCC(=O)[C@H](CCCNC(=N)N)NC(=O)[C@@H]1CCCN1C(=O)[C@@H](NC(=O)[C@H](CC(C)C)NC(=O)OCc1ccccc1)C(C)C`
Marked response: > 5 µM

Exam item: // Ki lookup, key: CN[C@H](C(=O)N1CCC[C@H]1C(=O)N[C@@H](CCCNC(=N)N)C(=O)CF)C(C)C (H-[NMeV]-Pro-Arg-CH2F)
Marked response: > 0.2 µM
